- Test system: A549
- protocol: Cytotoxicity against human A549 cells after 72 hrs by MTT assay
- Format: functional, cell-based
- reported.conditions: A549, 72 h
pIC50: −log10 of the molar value.
property.name: pIC50

[
  {
    "compound": "COc1ccc(S(=O)(=O)c2nc3ccccc3nc2N2CCc3ccccc3C2)cc1",
    "value.modifier": "<",
    "quantitative.result": 4.30
  },
  {
    "compound": "O=S(=O)(c1ccccc1)c1nc2ccccc2nc1N1CCCC1",
    "value.modifier": "=",
    "quantitative.result": 4.46
  },
  {
    "compound": "O=S(=O)(c1ccccc1)c1nc2ccccc2nc1N1CCc2ccccc2C1",
    "value.modifier": "=",
    "quantitative.result": 4.70
  },
  {
    "compound": "COc1ccc(S(=O)(=O)c2nc3ccccc3nc2N2CCCC2)cc1",
    "value.modifier": "<",
    "quantitative.result": 4.30
  },
  {
    "compound": "Cc1ccc(S(=O)(=O)c2nc3ccccc3nc2N2CCC(O)CC2)cc1",
    "value.modifier": "=",
    "quantitative.result": 5.40
  },
  {
    "compound": "O=S(=O)(c1ccccc1)c1nc2ccccc2nc1N1CCC(O)CC1",
    "value.modifier": "=",
    "quantitative.result": 5.69
  },
  {
    "compound": "Cc1ccc(S(=O)(=O)c2nc3ccccc3nc2N2CCc3ccccc3C2)cc1",
    "value.modifier": "<",
    "quantitative.result": 4.30
  },
  {
    "compound": "COc1ccc(S(=O)(=O)c2nc3ccccc3nc2N2CCC(O)CC2)cc1",
    "value.modifier": "=",
    "quantitative.result": 5.29
  },
  {
    "compound": "COc1ccc(S(=O)(=O)c2nc3ccccc3nc2N2CCCC(O)C2)cc1 (stereo not given)",
    "value.modifier": "=",
    "quantitative.result": 5.66
  },
  {
    "compound": "O=S(=O)(c1ccc(F)cc1)c1nc2ccccc2nc1N1CCCC1",
    "value.modifier": "=",
    "quantitative.result": 4.51
  }
]

---

Quick list: pIC50 per entry.
- System: KB
- protocol: Cytotoxicity against human KB cells after 72 hrs by MTT assay
- Format: functional, cell-based
pIC50: −log10 of the molar value.
property.name: pIC50

[
  {
    "compound": "COc1ccc(S(=O)(=O)c2nc3ccccc3nc2N2CCC(O)CC2)cc1",
    "property.name": "pIC50",
    "value.modifier": "=",
    "quantitative.result": 5.09
  },
  {
    "compound": "COc1ccc(S(=O)(=O)c2nc3ccccc3nc2N2CCCC2)cc1",
    "property.name": "pIC50",
    "value.modifier": "<",
    "quantitative.result": 4.30
  },
  {
    "compound": "O=S(=O)(c1ccccc1)c1nc2ccccc2nc1N1CCCC1",
    "property.name": "pIC50",
    "value.modifier": "=",
    "quantitative.result": 4.45
  },
  {
    "compound": "COc1ccc(S(=O)(=O)c2nc3ccccc3nc2N2CCc3ccccc3C2)cc1",
    "property.name": "pIC50",
    "value.modifier": "<",
    "quantitative.result": 4.30
  },
  {
    "compound": "Cc1ccc(S(=O)(=O)c2nc3ccccc3nc2N2CCC(O)CC2)cc1",
    "property.name": "pIC50",
    "value.modifier": "=",
    "quantitative.result": 5.21
  },
  {
    "compound": "O=S(=O)(c1ccccc1)c1nc2ccccc2nc1N1CCc2ccccc2C1",
    "property.name": "pIC50",
    "value.modifier": "=",
    "quantitative.result": 4.58
  },
  {
    "compound": "O=S(=O)(c1ccc(Br)cc1)c1nc2ccccc2nc1N1CCc2ccccc2C1",
    "property.name": "pIC50",
    "value.modifier": "<",
    "quantitative.result": 4.30
  },
  {
    "compound": "O=S(=O)(c1ccc(Br)cc1)c1nc2ccccc2nc1N1CCCC1",
    "property.name": "pIC50",
    "value.modifier": "<",
    "quantitative.result": 4.30
  },
  {
    "compound": "O=S(=O)(c1ccc(F)cc1)c1nc2ccccc2nc1N1CCC(O)CC1",
    "property.name": "pIC50",
    "value.modifier": "=",
    "quantitative.result": 5.02
  },
  {
    "compound": "O=S(=O)(c1ccc(F)cc1)c1nc2ccccc2nc1N1CCCC(O)C1 (stereo unspecified)",
    "property.name": "pIC50",
    "value.modifier": "=",
    "quantitative.result": 4.74
  },
  {
    "compound": "O=S(=O)(c1ccccc1)c1nc2ccccc2nc1N1CCC(O)CC1",
    "property.name": "pIC50",
    "value.modifier": "=",
    "quantitative.result": 5.27
  }
]

---

Quick list: IC50 per entry.
- tested.target: Phosphatidylinositol 4,5-bisphosphate 3-kinase catalytic subunit alpha isoform (Homo sapiens, UniProt P42336)
- Sequence (P42336 whole entry, canonical isoform): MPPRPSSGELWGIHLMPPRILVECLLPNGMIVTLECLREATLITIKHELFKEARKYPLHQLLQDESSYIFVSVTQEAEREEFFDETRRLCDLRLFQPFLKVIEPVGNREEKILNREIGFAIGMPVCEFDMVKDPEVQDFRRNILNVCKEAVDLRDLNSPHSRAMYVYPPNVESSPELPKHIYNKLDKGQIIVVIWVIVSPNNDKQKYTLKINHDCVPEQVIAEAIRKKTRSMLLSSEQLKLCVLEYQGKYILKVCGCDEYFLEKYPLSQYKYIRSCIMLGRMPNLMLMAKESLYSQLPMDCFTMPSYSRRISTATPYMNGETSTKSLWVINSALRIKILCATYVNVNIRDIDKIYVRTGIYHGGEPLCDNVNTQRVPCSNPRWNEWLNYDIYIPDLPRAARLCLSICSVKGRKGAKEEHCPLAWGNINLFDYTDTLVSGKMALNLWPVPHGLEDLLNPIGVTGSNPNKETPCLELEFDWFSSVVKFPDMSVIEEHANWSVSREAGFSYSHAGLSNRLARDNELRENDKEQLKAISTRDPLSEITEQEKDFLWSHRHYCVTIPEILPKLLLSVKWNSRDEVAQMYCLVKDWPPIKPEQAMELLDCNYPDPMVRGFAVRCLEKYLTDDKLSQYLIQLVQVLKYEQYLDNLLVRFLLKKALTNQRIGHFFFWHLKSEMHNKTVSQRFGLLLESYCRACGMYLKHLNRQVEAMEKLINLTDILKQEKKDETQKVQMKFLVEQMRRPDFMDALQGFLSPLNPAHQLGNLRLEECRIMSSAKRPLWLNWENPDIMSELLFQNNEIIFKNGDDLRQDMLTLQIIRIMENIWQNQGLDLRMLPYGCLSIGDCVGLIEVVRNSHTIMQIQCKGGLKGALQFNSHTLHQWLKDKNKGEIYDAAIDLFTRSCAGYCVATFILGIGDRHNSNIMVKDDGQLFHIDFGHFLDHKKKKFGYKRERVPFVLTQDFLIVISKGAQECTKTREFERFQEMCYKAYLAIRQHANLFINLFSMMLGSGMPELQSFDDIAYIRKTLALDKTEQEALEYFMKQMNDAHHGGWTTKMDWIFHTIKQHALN
- protocol: Inhibition of PI3Kalpha using diC8-PI(4,5)P2 as substrate after 3 hrs by competitive fluorescence polarization assay

[
  {
    "compound.smiles": "O=S(=O)(c1ccccc1)c1nc2ccccc2nc1N1CCc2ccccc2C1",
    "readout.units": "nM",
    "value.modifier": ">",
    "IC50": 50000
  },
  {
    "compound.smiles": "O=S(=O)(c1ccccc1)c1nc2ccccc2nc1N1CCOCC1",
    "readout.units": "nM",
    "value.modifier": "=",
    "IC50": 440
  },
  {
    "compound.smiles": "O=S(=O)(c1ccccc1)c1nc2ccccc2nc1N1CCC(O)CC1",
    "readout.units": "nM",
    "value.modifier": "=",
    "IC50": 79
  },
  {
    "compound.smiles": "O=S(=O)(c1ccc(Br)cc1)c1nc2ccccc2nc1N1CCC(O)CC1",
    "readout.units": "nM",
    "value.modifier": "=",
    "IC50": 25
  },
  {
    "compound.smiles": "O=S(=O)(c1ccccc1)c1nc2ccccc2nc1N1CCCC1",
    "readout.units": "nM",
    "value.modifier": "=",
    "IC50": 21800
  }
]

---

- System: A549
- protocol: Cytotoxicity against human A549 cells after 72 hrs by MTT assay
- Assay type: functional, cell-based
- reported.conditions: A549, 72 h
pIC50: −log10 of the molar value.
Quick list: pIC50 per entry.
property.name: pIC50

[
  {
    "compound": "O=S(=O)(c1ccc(Br)cc1)c1nc2ccccc2nc1N1CCCC(O)C1 (stereo unspecified)",
    "value.modifier": "=",
    "quantitative.result": 5.68
  },
  {
    "compound": "O=S(=O)(c1ccc(F)cc1)c1nc2ccccc2nc1N1CCc2ccccc2C1",
    "value.modifier": "=",
    "quantitative.result": 4.64
  },
  {
    "compound": "O=S(=O)(c1ccccc1)c1nc2ccccc2nc1N1CCOCC1",
    "value.modifier": "=",
    "quantitative.result": 4.90
  },
  {
    "compound": "O=S(=O)(c1ccc(F)cc1)c1nc2ccccc2nc1N1CCC(O)CC1",
    "value.modifier": "=",
    "quantitative.result": 4.69
  },
  {
    "compound": "Cc1ccc(S(=O)(=O)c2nc3ccccc3nc2N2CCCC2)cc1",
    "value.modifier": "<",
    "quantitative.result": 4.30
  },
  {
    "compound": "O=S(=O)(c1ccc(Br)cc1)c1nc2ccccc2nc1N1CCC(O)CC1",
    "value.modifier": "=",
    "quantitative.result": 6.02
  },
  {
    "compound": "O=S(=O)(c1ccc(F)cc1)c1nc2ccccc2nc1N1CCCC(O)C1 (stereo unspecified)",
    "value.modifier": "=",
    "quantitative.result": 5.09
  },
  {
    "compound": "O=S(=O)(c1ccc(Br)cc1)c1nc2ccccc2nc1N1CCc2ccccc2C1",
    "value.modifier": "<",
    "quantitative.result": 4.30
  },
  {
    "compound": "O=S(=O)(c1ccc(Br)cc1)c1nc2ccccc2nc1N1CCCC1",
    "value.modifier": "<",
    "quantitative.result": 4.30
  },
  {
    "compound": "O=S(=O)(c1ccccc1)c1nc2ccccc2nc1N1CCCC(O)C1 (stereo unspecified)",
    "value.modifier": "=",
    "quantitative.result": 6.51
  },
  {
    "compound": "Cc1ccc(S(=O)(=O)c2nc3ccccc3nc2N2CCCC(O)C2)cc1 (stereo unspecified)",
    "value.modifier": "=",
    "quantitative.result": 5.87
  }
]
